test system: MM1-S; assay: Flow cytometry proliferation/apoptosis assay (120 h); format: cell-based, human; conditions: Homo sapiens, MM1-S, read-out: Antiproliferative Activity (Flow Cytometry) IC50
metric_name: pIC50
Reminder that pIC50 means the negative base-10 logarithm of the concentration expressed in mol/L.

- compound: "N#Cc1ccc(N2CCN(Cc3ccc(COc4cccc5c4CN([C@H]4CCC(=O)NC4=O)C5=O)cc3)CC2)c(F)c1 [Compound 2]"
  pIC50: 10.40

Short answer please: pIC50, MM1-S, entry Nc1cccc2c1C(=O)N(C1CCC(=O)NC1=O)C2=O (centres unmarked) [Pomalidomide, pomalidomide]
7.47

----------
test system: NCI-H929; experiment: PBMC and MM cell treatment assay (single culture vs co-culture); assay type: cell-based, human; conditions: Homo sapiens, NCI-H929, NCI-H929; Co-culture with PBMCs; read-out: Immune-mediated Cell Killing IC50
metric_name: IC50 (nM)
Quick note: give the figure in nM, leave out the unit.

Consider the reported IC50 for these compounds:
- compound: "Nc1cccc2c1C(=O)N(C1CCC(=O)NC1=O)C2=O (stereo not drawn) [Pomalidomide, pomalidomide]"
  metric_name: "IC50"
  result_value: 44.4
- compound: "Nc1cccc2c1CN(C1CCC(=O)NC1=O)C2=O (stereo not drawn) [Lenalidomide, lenalidomide]"
  metric_name: "IC50"
  result_value: 317

Kindly review the next compound as well.
Consider the compound N#Cc1ccc(N2CCN(Cc3ccc(COc4cccc5c4CN([C@H]4CCC(=O)NC4=O)C5=O)cc3)CC2)c(F)c1 [Compound 2] and give its measured IC50.
0.087

----------
system: NCI-H929; assay: Coculture of compound-treated anti-CD3-activated PBMCs with untreated myeloma cells; assay type: cell-based; details: Homo sapiens, T:E 1:5, 24 h, read-out: IC50 tumor cell lysis by compound-treated PBMCs
metric_name: IC50 (nM)
Quick note: give the figure in nM, leave out the unit.

Consider the compound "N#Cc1ccc(N2CCN(Cc3ccc(COc4cccc5c4CN([C@H]4CCC(=O)NC4=O)C5=O)cc3)CC2)c(F)c1" and give its measured IC50.
5

----------
Property: IC50; scope: individual compounds
System: OPM2-P10
Experiment: PBMC and MM cell treatment assay (single culture vs co-culture)
Format: cell-based, human
Settings: Homo sapiens, PBMC, Co-culture with PBMCs, read-out: Immune-mediated Cell Killing IC50
Experimental: PBMC and MM Cell Treatment Assay Procedure. Ninety-six-well dishes were pre-coated with anti-CD3 antibody (OKT3, 3 μg/mL) and incubated at 4° C. overnight before the start of the experiment. Frozen PBMC donor cells were thawed at 37° C. for 2 minutes in RPMI medium with 10% FBS and cell counts and viability were measured on the Vi-CELL analyzer. […] After 72 h, the PBMCs and MM cells were counted and transferred into a U-bottom 96-well plate at a final T:E ratio of 1:5. […]
Quick note: give the figure in µM, leave out the unit.

Consider the reported IC50 for these compounds:
- compound: "Nc1cccc2c1CN(C1CCC(=O)NC1=O)C2=O (stereo not drawn) [Lenalidomide, lenalidomide]"
  metric_name: "IC50"
  result_value: 8.09
- compound: "Nc1cccc2c1C(=O)N(C1CCC(=O)NC1=O)C2=O (stereo not drawn) [Pomalidomide, pomalidomide]"
  metric_name: "IC50"
  result_value: 1.18

Short answer please: IC50, OPM2-P10, entry "N#Cc1ccc(N2CCN(Cc3ccc(COc4cccc5c4CN([C@H]4CCC(=O)NC4=O)C5=O)cc3)CC2)c(F)c1"
0.0031

----------
target: non-selective α1 adrenergic receptor; test: α1 adrenergic receptor radioligand binding ([3H]prazosin); settings: rat cerebral cortex; [3H]prazosin
Property: IC50; scope: individual molecules
Quick note: give the figure in µM, leave out the unit.

Consider the reported IC50 for these molecules:
- molecule: "O=C1CCC(N2Cc3c(OCc4ccc(CN5CCN(c6ccc(F)cc6F)CC5)cc4)cccc3C2=O)C(=O)N1 (racemic)"
  metric_name: "IC50"
  result_value: 0.064
- molecule: "N#Cc1ccc(N2CCN(Cc3ccc(COc4cccc5c4CN(C4CCC(=O)NC4=O)C5=O)cc3)CC2)c(F)c1 (racemic)"
  metric_name: "IC50"
  result_value: 3.9

Kindly review the next molecule as well.
Short answer please: IC50, non-selective α1 adrenergic receptor, entry "O=C1CC[C@H](N2Cc3c(OCc4ccc(CN5CCN(c6ccc(F)cc6F)CC5)cc4)cccc3C2=O)C(=O)N1"
0.024

----------
test system: CYP3A4/5; assay: CYP inhibition in pooled human liver microsomes; format: in vitro ADME; settings: human, microsomes, inhibition of CYP3A4/5 (testosterone) activity after preincubation without NADPH
metric_name: inhibition at 30 µM (%)
Quick note: give the figure in %, leave out the unit.

Consider the molecule N#Cc1ccc(N2CCN(Cc3ccc(COc4cccc5c4CN([C@H]4CCC(=O)NC4=O)C5=O)cc3)CC2)c(F)c1 [Compound 2] and give its measured inhibition at 30 µM.
23

----------
Target: α1B adrenergic receptor (Homo sapiens)
Construct: host or cells: CHO cells
Sequence (P35368 1-520): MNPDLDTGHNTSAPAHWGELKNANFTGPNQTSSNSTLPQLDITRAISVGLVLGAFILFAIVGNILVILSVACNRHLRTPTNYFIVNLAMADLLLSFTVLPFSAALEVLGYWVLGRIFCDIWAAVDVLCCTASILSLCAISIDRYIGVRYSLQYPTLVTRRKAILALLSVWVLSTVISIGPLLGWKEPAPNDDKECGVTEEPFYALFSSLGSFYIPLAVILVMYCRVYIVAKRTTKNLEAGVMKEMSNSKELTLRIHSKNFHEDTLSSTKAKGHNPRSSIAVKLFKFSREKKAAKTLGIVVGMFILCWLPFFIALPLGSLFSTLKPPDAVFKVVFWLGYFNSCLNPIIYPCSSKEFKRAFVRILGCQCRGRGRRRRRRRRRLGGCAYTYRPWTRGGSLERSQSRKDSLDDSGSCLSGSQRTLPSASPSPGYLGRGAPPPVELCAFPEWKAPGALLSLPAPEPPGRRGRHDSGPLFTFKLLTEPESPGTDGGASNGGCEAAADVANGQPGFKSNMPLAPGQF
Assay: α1B adrenergic receptor antagonist assay (cAMP, CHO cells)
Assay type: cell-based
Settings: epinephrine 3000 nM; cAMP; read-out: Antagonism IC50 α1B
metric_name: pIC50
Reminder that pIC50 means the negative base-10 logarithm of the concentration expressed in mol/L.

Consider the compound O=C1CC[C@H](N2Cc3c(OCc4ccc(CN5CCN(c6ccc(F)cc6F)CC5)cc4)cccc3C2=O)C(=O)N1 [Compound B] and give its measured pIC50.
7.11

----------
Property: IC50; scope: individual compounds
test system: OPM2; test: PBMC and MM cell treatment assay (single culture vs co-culture); type: cell-based; conditions: Homo sapiens, OPM-2, OPM2; Co-culture with PBMCs; read-out: Immune-mediated Cell Killing IC50
Quick note: give the figure in nM, leave out the unit.

Consider the reported IC50 for these compounds:
- compound: "N#Cc1ccc(N2CCN(Cc3ccc(COc4cccc5c4CN([C@H]4CCC(=O)NC4=O)C5=O)cc3)CC2)c(F)c1"
  assay_target: "OPM2"
  result_value: 0.0936
- compound: "Nc1cccc2c1CN(C1CCC(=O)NC1=O)C2=O (stereo not drawn) [Lenalidomide, lenalidomide]"
  assay_target: "OPM2"
  result_value: 1720

Kindly review the next compound as well.
Consider the compound Nc1cccc2c1C(=O)N(C1CCC(=O)NC1=O)C2=O (stereo not drawn) [Pomalidomide, pomalidomide] and give its measured IC50.
168

----------
test system: H929-1051; assay: PBMC and MM cell treatment assay (single culture vs co-culture); format: cell-based, human; details: Homo sapiens, PBMC, H929-1051; Single culture; read-out: Immune-mediated Cell Killing IC50
Property: IC50; scope: individual molecules

Consider the reported IC50 for these molecules:
- molecule: "Nc1cccc2c1CN(C1CCC(=O)NC1=O)C2=O (stereo not drawn) [Lenalidomide, lenalidomide]"
  result_value: "> 10 µM"
- molecule: "N#Cc1ccc(N2CCN(Cc3ccc(COc4cccc5c4CN([C@H]4CCC(=O)NC4=O)C5=O)cc3)CC2)c(F)c1"
  result_value: "0.575 µM"

Consider the molecule Nc1cccc2c1C(=O)N(C1CCC(=O)NC1=O)C2=O (stereo not drawn) [Pomalidomide, pomalidomide] and give its measured IC50.
> 10 µM

----------
system: non-selective α1 adrenergic receptor; assay: α1 adrenergic receptor radioligand binding ([3H]prazosin); details: 10 μM; rat cerebral cortex; 0.25 nM [3H]prazosin
metric_name: Adrenergic α1 (non-selective) % Inhibition (10 μM)

Short answer please: Adrenergic α1 (non-selective) % Inhibition (10 μM), non-selective α1 adrenergic receptor, entry O=C1CCC(N2Cc3c(OCc4ccc(CN5CCN(c6ccc(F)cc6F)CC5)cc4)cccc3C2=O)C(=O)N1 (racemic)
102%

Short answer please: Adrenergic α1 (non-selective) % Inhibition (10 μM), non-selective α1 adrenergic receptor, entry "N#Cc1ccc(N2CCN(Cc3ccc(COc4cccc5c4CN([C@H]4CCC(=O)NC4=O)C5=O)cc3)CC2)c(F)c1"
62%

Short answer please: Adrenergic α1 (non-selective) % Inhibition (10 μM), non-selective α1 adrenergic receptor, entry N#Cc1ccc(N2CCN(Cc3ccc(COc4cccc5c4CN(C4CCC(=O)NC4=O)C5=O)cc3)CC2)c(F)c1 (racemic)
67%

Short answer please: Adrenergic α1 (non-selective) % Inhibition (10 μM), non-selective α1 adrenergic receptor, entry O=C1CCC(N2Cc3c(OCc4ccc(CN5CCN(c6ccc(F)cc6)CC5)cc4)cccc3C2=O)C(=O)N1 (racemic)
100.3%

Where these numbers come from: patent US12029738B2
